Target: human PAR-2 (hPAR-2) receptor expressed in HEK-293 T cells in an endogenous manner (Homo sapiens)
Construct: human PAR-2 (hPAR-2) receptor expressed in HEK-293 T cells in an endogenous manner; endogenous in cells
Test: In vitro human PAR-2 functional antagonist activity using calcium assays (Fluo4AM, FLIPR Tetra)
Conditions: HEK-293 T cells stimulated by an EC80 of the 2-Furoyl-LIGRLO-NH2 peptide after 10 min incubation with compound; 20 concentrations, duplicate, two independent experiments
quantityName: IC50

[
  {
    "compound": "COCC1CN(C(=O)c2ccc3c(-c4ccc(Cl)c(F)c4)cn(C(C)(C)C)c3n2)CCN1c1cc(C)c(C(=O)O)c(C)n1 (stereo not shown)",
    "recordedMeasurement": "20 to 10000 nM"
  },
  {
    "compound": "CCn1cc(-c2ccc(Cl)c(F)c2)c2ccc(C(=O)N3CCN(c4cc(C)c(C(=O)O)c(C)n4)CC3(C)C)nc21",
    "recordedMeasurement": "< 20 nM"
  },
  {
    "compound": "CC(C)Cn1cc(-c2ccc(Cl)cc2)c2ccc(C(=O)N3CCNC(=O)C3(C)C)nc21",
    "recordedMeasurement": "20 to 10000 nM"
  },
  {
    "compound": "CC1(C)CN(C(=O)c2ccc(C(=O)O)cn2)CCN1C(=O)c1ccc2c(-c3ccc(Cl)c(F)c3)cn(C(C)(C)C)c2n1",
    "recordedMeasurement": "20 to 10000 nM"
  }
]

----------
Target: human PAR-2 (hPAR-2) receptor expressed in HEK-293 T cells in an endogenous manner (Homo sapiens)
Construct: human PAR-2 (hPAR-2) receptor expressed in HEK-293 T cells in an endogenous manner; endogenous in cells
Sequence (P55085 26-397): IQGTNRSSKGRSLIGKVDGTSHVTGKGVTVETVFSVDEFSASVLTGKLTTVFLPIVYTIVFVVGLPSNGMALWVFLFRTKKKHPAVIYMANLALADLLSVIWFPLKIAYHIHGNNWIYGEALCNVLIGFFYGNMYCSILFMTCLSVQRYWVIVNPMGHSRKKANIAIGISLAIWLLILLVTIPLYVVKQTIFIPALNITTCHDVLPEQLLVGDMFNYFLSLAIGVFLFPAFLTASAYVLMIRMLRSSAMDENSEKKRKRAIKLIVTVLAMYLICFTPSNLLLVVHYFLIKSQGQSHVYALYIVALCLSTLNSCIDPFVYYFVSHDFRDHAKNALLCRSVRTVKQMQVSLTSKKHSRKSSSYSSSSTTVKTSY
Test: In vitro human PAR-2 functional antagonist activity using calcium assays (Fluo4AM, FLIPR Tetra)
Details: HEK-293 T cells stimulated by an EC80 of the 2-Furoyl-LIGRLO-NH2 peptide after 10 min incubation with compound; 20 concentrations, duplicate, two independent experiments
quantityName: IC50

[
  {
    "molecule": "CN(C)C(=O)CN1CCN(C(=O)c2ccc3c(-c4ccc(Cl)c(F)c4)cn(C(C)(C)C)c3n2)C(C)(C)C1=O [Example 7]",
    "recordedMeasurement": "< 20 nM"
  },
  {
    "molecule": "CC1(C)C(=O)NCCN1C(=O)c1ccc2c(-c3ccc(Cl)c(F)c3)cn(C(C)(C)C)c2n1 [Example 1]",
    "recordedMeasurement": "< 20 nM"
  },
  {
    "molecule": "CC1(C)C(=O)NCCN1C(=O)c1ccc2c(n1)c(C1CC1)nn2-c1ccc(Cl)c(F)c1 [Example 77]",
    "recordedMeasurement": "20 to 10000 nM"
  },
  {
    "molecule": "Cc1cc(N2CCN(C(=O)c3ccc4c(-c5ccc(Cl)c(F)c5)cn(CC5(C)COC5)c4n3)C(C)(C)C2)nc(C)c1C(=O)O [Example 181]",
    "recordedMeasurement": "< 20 nM"
  },
  {
    "molecule": "CC(C)Cn1cc(-c2cccc(F)c2)c2ccc(C(=O)N3CCNC(=O)C3(C)C)nc21 [Example 114]",
    "recordedMeasurement": "20 to 10000 nM"
  },
  {
    "molecule": "Cc1cc(N2CCN(C(=O)c3ccc4c(-c5ccc(Cl)c(F)c5)cn(Cc5ncccn5)c4n3)C(C)(C)C2)nc(C)c1C(=O)O [Example 158]",
    "recordedMeasurement": "20 to 10000 nM"
  },
  {
    "molecule": "Cc1cc(N2CCN(C(=O)c3ccc4c(-c5ccc(Cl)c(F)c5)cn(C(C)(C)C)c4n3)CC2)nc(C)c1C(=O)O [Example 99]",
    "recordedMeasurement": "< 20 nM"
  },
  {
    "molecule": "CC(C)N1CNC(=O)C12CCN(C(=O)c1ccc3c(-c4ccc(Cl)c(F)c4)cn(C(C)(C)C)c3n1)CC2 [Example 207]",
    "recordedMeasurement": "< 20 nM"
  },
  {
    "molecule": "Cc1cc(N2CCN(C(=O)c3ccc4c(-c5ccc(C(F)(F)F)c(F)c5)cn(CC(C)C)c4n3)C(C)(C)C2)nc(C)c1C(=O)O [Example 144]",
    "recordedMeasurement": "< 20 nM"
  },
  {
    "molecule": "CC(C)Cn1cc(-c2cc3cc(F)ccc3[nH]2)c2ccc(C(=O)N3CCNC(=O)C3(C)C)nc21 [Example 225]",
    "recordedMeasurement": "20 to 10000 nM"
  },
  {
    "molecule": "Cc1cc(NC(=O)C2CCN(C(=O)c3ccc4c(-c5ccc(Cl)c(F)c5)cn(C(C)(C)C)c4n3)CC2)nc(C)c1C(=O)O [Example 123]",
    "recordedMeasurement": "20 to 10000 nM"
  },
  {
    "molecule": "COC(=O)c1c(C)cc(N2CCN(C(=O)c3ccc4c(n3)c(CC(C)C)nn4-c3ccc(Cl)c(F)c3)C(C)(C)C2)nc1C [Example 64]",
    "recordedMeasurement": "> 10000 nM"
  },
  {
    "molecule": "Cc1cc(N2CCN(C(=O)c3cnc4c(-c5ccc(Cl)c(F)c5)cn(CC(C)C)c4n3)C(C)(C)C2)nc(C)c1C(=O)O [Example 190]",
    "recordedMeasurement": "< 20 nM"
  },
  {
    "molecule": "CC(C)Cn1cc(-c2ccccc2OC(F)(F)F)c2ccc(C(=O)N3CCNC(=O)C3(C)C)nc21 [Example 112]",
    "recordedMeasurement": "20 to 10000 nM"
  }
]

----------
Collected pIC50 values appear next to each entry.
Biological target: human PAR-2 (hPAR-2) receptor expressed in HEK-293 T cells in an endogenous manner (Homo sapiens)
Construct: human PAR-2 (hPAR-2) receptor expressed in HEK-293 T cells in an endogenous manner; endogenous in cells
Sequence (P55085 26-397): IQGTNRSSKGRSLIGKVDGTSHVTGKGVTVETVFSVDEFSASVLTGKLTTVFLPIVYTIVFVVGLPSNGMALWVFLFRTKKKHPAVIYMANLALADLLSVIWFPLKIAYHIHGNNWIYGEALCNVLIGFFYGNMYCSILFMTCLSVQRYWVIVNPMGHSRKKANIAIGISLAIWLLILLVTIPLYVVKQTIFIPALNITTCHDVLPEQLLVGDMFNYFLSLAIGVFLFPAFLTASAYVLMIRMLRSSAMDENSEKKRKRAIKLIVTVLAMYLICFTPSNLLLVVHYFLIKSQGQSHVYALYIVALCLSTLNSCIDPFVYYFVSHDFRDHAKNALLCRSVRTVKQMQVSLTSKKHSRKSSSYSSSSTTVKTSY
Test: In vitro human PAR-2 functional antagonist activity using calcium assays (Fluo4AM, FLIPR Tetra)
Details: HEK-293 T cells stimulated by an EC80 of the 2-Furoyl-LIGRLO-NH2 peptide after 10 min incubation with compound; 20 concentrations, duplicate, two independent experiments
pIC50: −log10 of the molar value.

[
  {
    "smilesRecord": "Cc1ccc(-c2cn(CC(C)C)c3nc(C(=O)N4CCNC(=O)C4(C)C)ccc23)cc1",
    "pIC50": "5.00 to 7.70"
  },
  {
    "smilesRecord": "CC(C)(C)n1cc(-c2ccc(Cl)c(F)c2)c2ccc(C(=O)N3CCC(CC(N)=O)CC3)nc21",
    "pIC50": "5.00 to 7.70"
  },
  {
    "smilesRecord": "CC(C)(C)c1nn(-c2ccc(Cl)c(F)c2)c2ccc(C(=O)N3CCNC(=O)C3(C)C)nc12",
    "pIC50": "5.00 to 7.70"
  },
  {
    "smilesRecord": "CC1(C)CN(c2ccc(C(N)=O)cn2)CCN1C(=O)c1ccc2c(-c3ccc(Cl)c(F)c3)cn(C(C)(C)C)c2n1",
    "pIC50": "> 7.70"
  },
  {
    "smilesRecord": "Cc1nc(Cn2cc(-c3ccc(Cl)c(F)c3)c3ccc(C(=O)N4CCN(c5cc(C)c(C(=O)O)c(C)n5)CC4(C)C)nc32)c(C)o1",
    "pIC50": "5.00 to 7.70"
  },
  {
    "smilesRecord": "CC1(C)C(=O)N(CC(N)=O)CCN1C(=O)c1ccc2c(-c3ccc(Cl)c(F)c3)cn(C(C)(C)C)c2n1",
    "pIC50": "> 7.70"
  },
  {
    "smilesRecord": "CC1(C)C(=O)NCCN1C(=O)c1ccc2c(-c3ccc(Cl)c(F)c3)cn(CCn3cccn3)c2n1",
    "pIC50": "5.00 to 7.70"
  }
]
